Data origin: the Immune Epitope Database (IEDB)

# experimental target: HLA-A*68:01
# experiment summary: IEDB peptide-MHC binding, purified MHC/competitive/radioactivity; filed as Kd, often an IC50 or EC50 that approximates it; bounds were set here for any values at or beyond the usual limits of such assays
# conditions used: source organism: Vaccinia virus Copenhagen
test readout: pKd
pKd is a log-scale quantity: -log10 of the concentration expressed in molar.

Observe how each entry below is paired with its result.
CQLMYALEPR 8.12
QLMYALEPR 5.53

Now for a further sequence.
Item: `TLFIDRGSIK` | System: HLA-A*68:01 | pKd: 7.39

---

# experimental target: HLA-B*15:01
# experiment summary: IEDB peptide-MHC binding, purified MHC/direct/fluorescence; filed as Kd, often an IC50 or EC50 that approximates it; bounds were set here for any values at or beyond the usual limits of such assays
# conditions used: source organism: Sudan ebolavirus - Maleo (1979)
test readout: pKd
The read-out pKd is expressed as -log10 of concentration in moles per litre.

The recorded pKd for entry `NFFHASLAY` equals 7.19

---

# experimental target: HLA-B*15:17
# experiment summary: IEDB peptide-MHC binding, purified MHC/direct/fluorescence; filed as Kd, often an IC50 or EC50 that approximates it; bounds were set here for any values at or beyond the usual limits of such assays
# conditions used: source organism: Burkholderia mallei ATCC 23344
pKd: −log10 of the molar value.
test readout: pKd

The sequence `NVMDPMHGA` showed pKd equal to ≤ 4.70

---

# experimental target: HLA-B*15:17
# experiment summary: IEDB peptide-MHC binding, purified MHC/competitive/fluorescence; filed as Kd, often an IC50 or EC50 that approximates it; bounds were set here for any values at or beyond the usual limits of such assays
# conditions used: source organism: Candida albicans SC5314
test readout: Kd (nM)
State the answer as a number, implicitly in nM.

Field Kd (entry `RVYNNTARY` ) reads 1.5

---

# experimental target: HLA-B*14:02
# experiment summary: IEDB peptide-MHC binding, purified MHC/competitive/fluorescence; filed as Kd, often an IC50 or EC50 that approximates it; bounds were set here for any values at or beyond the usual limits of such assays
# conditions used: source organism: Cryptosporidium parvum Iowa II
pKd: −log10 of the molar value.
test readout: pKd

pKd reported for this sequence `TVFRNQNRV` : ≤ 5.30

---

# experimental target: HLA-A*31:01
# experiment summary: IEDB peptide-MHC binding, purified MHC/direct/fluorescence; filed as Kd, often an IC50 or EC50 that approximates it; bounds were set here for any values at or beyond the usual limits of such assays
# conditions used: source organism: Corynebacterium glutamicum
pKd: −log10 of the molar value.
test readout: pKd

Entry under test: `WPALSSIAA` . Its pKd was ≤ 4.70

---

# experimental target: HLA-B*18:01
# experiment summary: IEDB peptide-MHC binding, purified MHC/direct/fluorescence; filed as Kd, often an IC50 or EC50 that approximates it; bounds were set here for any values at or beyond the usual limits of such assays
# conditions used: source organism: Vibrio parahaemolyticus
test readout: Kd

Kd recorded for this sequence, `ALSMGINTV` , is ≥ 20 µM

---

# experimental target: HLA-B*27:03
# experiment summary: IEDB peptide-MHC binding, purified MHC/competitive/fluorescence; filed as Kd, often an IC50 or EC50 that approximates it; bounds were set here for any values at or beyond the usual limits of such assays
# conditions used: source organism: Vibrio cholerae 2740-80
test readout: Kd

Measured Kd of `YEPEMQAQV` : ≥ 20 µM
